Form field: CC50 (one value per entry).
test.details: Cytotoxicity against MDCK cells by MTT assay
Format: cell-based, Canis lupus familiaris
assay.setup: dog
readout.label: CC50

[[record]]
compound = "Cc1cc2c(c(O)c1-c1c(C)cc3c(c1O)/C(=C/NCCCCCCCC(=O)[O-])C(=O)C(O)=C3C(C)C)/C(=C/NCCCCCCCC(=O)[O-])C(=O)C(O)=C2C(C)C.[Na+].[Na+]"
readout_label = "CC50"
reported_value = "> 39.5 µM"

[[record]]
compound = "NC12CC3CC(CC(C3)C1)C2"
readout_label = "CC50"
reported_value = "> 220 µM"

[[record]]
compound = "CC(=O)N[C@H]1[C@H]([C@H](O)[C@H](O)CO)OC(C(=O)O)=C[C@@H]1NC(=N)N"
readout_label = "CC50"
reported_value = "> 100 µM"

[[record]]
compound = "Cc1cc2c(c(O)c1-c1c(C)cc3c(c1O)/C(=C/N[C@@H](CC(C)C)C(=O)[O-])C(=O)C(O)=C3C(C)C)/C(=C/N[C@@H](CC(C)C)C(=O)[O-])C(=O)C(O)=C2C(C)C.[Na+].[Na+]"
readout_label = "CC50"
reported_value = "> 47.4 µM"

[[record]]
compound = "Cc1cc2c(c(O)c1-c1c(C)cc3c(c1O)/C(=C/NC(C(=O)[O-])c1ccc(O)cc1)C(=O)C(O)=C3C(C)C)/C(=C/NC(C(=O)[O-])c1ccc(O)cc1)C(=O)C(O)=C2C(C)C.[Na+].[Na+] (stereo unspecified)"
readout_label = "CC50"
reported_value = "> 38.8 µM"

[[record]]
compound = "Cc1cc2c(C(C)C)c(O)c(O)c(/C=N/[C@@H](Cc3ccccc3)C(=O)[O-])c2c(O)c1-c1c(C)cc2c(C(C)C)c(O)c(O)c(/C=N/[C@@H](Cc3ccccc3)C(=O)[O-])c2c1O.[Na+].[Na+]"
readout_label = "CC50"
reported_value = "> 38.9 µM"

[[record]]
compound = "Cc1cc2c(c(O)c1-c1c(C)cc3c(c1O)/C(=C/N[C@H](C(=O)[O-])C(C)C)C(=O)C(O)=C3C(C)C)/C(=C/N[C@H](C(=O)[O-])C(C)C)C(=O)C(O)=C2C(C)C.[Na+].[Na+]"
readout_label = "CC50"
reported_value = "> 43.9 µM"

[[record]]
compound = "Cc1cc2c(c(O)c1-c1c(C)cc3c(c1O)/C(=C/N[C@@H](Cc1c[nH]cn1)C(=O)[O-])C(=O)C(O)=C3C(C)C)/C(=C/N[C@@H](Cc1c[nH]cn1)C(=O)[O-])C(=O)C(O)=C2C(C)C.[Na+].[Na+]"
readout_label = "CC50"
reported_value = "> 41.2 µM"

[[record]]
compound = "COC(=O)C(N/C=C1\\C(=O)C(O)=C(C(C)C)c2cc(C)c(-c3c(C)cc4c(c3O)/C(=C/NC(C(=O)OC)c3ccccc3)C(=O)C(O)=C4C(C)C)c(O)c21)c1ccccc1 (stereo unspecified)"
readout_label = "CC50"
reported_value = "> 41.1 µM"

[[record]]
compound = "CC[C@H](C)[C@H](N/C=C1\\C(=O)C(O)=C(C(C)C)c2cc(C)c(-c3c(C)cc4c(c3O)/C(=C/N[C@H](C(=O)[O-])[C@@H](C)CC)C(=O)C(O)=C4C(C)C)c(O)c21)C(=O)[O-].[Na+].[Na+]"
readout_label = "CC50"
reported_value = "> 42.3 µM"

[[record]]
compound = "Cc1cc2c(c(O)c1-c1c(C)cc3c(c1O)/C(=C/NCCCCCC(=O)[O-])C(=O)C(O)=C3C(C)C)/C(=C/NCCCCCC(=O)[O-])C(=O)C(O)=C2C(C)C.[Na+].[Na+]"
readout_label = "CC50"
reported_value = "> 42.3 µM"

[[record]]
compound = "Cc1cc2c(c(O)c1-c1c(C)cc3c(c1O)/C(=C/N[C@@H](CO)C(=O)[O-])C(=O)C(O)=C3C(C)C)/C(=C/N[C@@H](CO)C(=O)[O-])C(=O)C(O)=C2C(C)C.[Na+].[Na+]"
readout_label = "CC50"
reported_value = "> 45.3 µM"

[[record]]
compound = "Cc1cc2c(c(O)c1-c1c(C)cc3c(c1O)/C(=C/N[C@@H](Cc1c[nH]c4ccccc14)C(=O)[O-])C(=O)C(O)=C3C(C)C)/C(=C/N[C@@H](Cc1c[nH]c3ccccc13)C(=O)[O-])C(=O)C(O)=C2C(C)C.[Na+].[Na+]"
readout_label = "CC50"
reported_value = "> 35.7 µM"

[[record]]
compound = "COC(=O)[C@H](C)N/C=C1\\C(=O)C(O)=C(C(C)C)c2cc(C)c(-c3c(C)cc4c(c3O)/C(=C/N[C@@H](C)C(=O)OC)C(=O)C(O)=C4C(C)C)c(O)c21"
readout_label = "CC50"
reported_value = "> 48.5 µM"

[[record]]
compound = "Cc1cc2c(c(O)c1-c1c(C)cc3c(c1O)/C(=C/N[C@H](C(=O)[O-])c1ccccc1)C(=O)C(O)=C3C(C)C)/C(=C/N[C@H](C(=O)[O-])c1ccccc1)C(=O)C(O)=C2C(C)C.[Na+].[Na+]"
readout_label = "CC50"
reported_value = "> 40.3 µM"

[[record]]
compound = "Cc1cc2c(c(O)c1-c1c(C)cc3c(c1O)/C(=C/NC(C(=O)[O-])c1ccc(Cl)cc1)C(=O)C(O)=C3C(C)C)/C(=C/NC(C(=O)[O-])c1ccc(Cl)cc1)C(=O)C(O)=C2C(C)C.[Na+].[Na+] (stereo unspecified)"
readout_label = "CC50"
reported_value = "> 37.2 µM"

[[record]]
compound = "Cc1cc2c(c(O)c1-c1c(C)cc3c(c1O)/C(=C/NCCCCC(=O)[O-])C(=O)C(O)=C3C(C)C)/C(=C/NCCCCC(=O)[O-])C(=O)C(O)=C2C(C)C.[Na+].[Na+]"
readout_label = "CC50"
reported_value = "> 43.8 µM"

[[record]]
compound = "Cc1cc2c(c(O)c1-c1c(C)cc3c(c1O)/C(=C/NCCS(=O)(=O)[O-])C(=O)C(O)=C3C(C)C)/C(=C/NCCS(=O)(=O)[O-])C(=O)C(O)=C2C(C)C.[Na+].[Na+]"
readout_label = "CC50"
reported_value = "> 43 µM"

[[record]]
compound = "Cc1cc2c(c(O)c1-c1c(C)cc3c(c1O)/C(=C/NCC(=O)[O-])C(=O)C(O)=C3C(C)C)/C(=C/NCC(=O)[O-])C(=O)C(O)=C2C(C)C.[Na+].[Na+]"
readout_label = "CC50"
reported_value = "> 49.3 µM"

[[record]]
compound = "Cc1cc2c(c(O)c1-c1c(C)cc3c(c1O)/C(=C/NC(C)(C)C(=O)[O-])C(=O)C(O)=C3C(C)C)/C(=C/NC(C)(C)C(=O)[O-])C(=O)C(O)=C2C(C)C.[Na+].[Na+]"
readout_label = "CC50"
reported_value = "> 45.5 µM"

[[record]]
compound = "COC(=O)[C@H](CC(C)C)N/C=C1\\C(=O)C(O)=C(C(C)C)c2cc(C)c(-c3c(C)cc4c(c3O)/C(=C/N[C@@H](CC(C)C)C(=O)OC)C(=O)C(O)=C4C(C)C)c(O)c21"
readout_label = "CC50"
reported_value = "> 42.8 µM"

